assay: Oral bioavailability in rat at 5 mg/kg; format: ADME, organism-based; conditions: in vivo
Values of bioavailability greater than or equal to 7% map to yes (1); values below map to no (0).

[
  {
    "smiles.str": "COc1cc(CN2CCN(C)CC2)ccc1-c1nc2c(N[C@H]3[C@@H](C(N)=O)[C@@H]4C=C[C@H]3C4)c(Cl)cnc2[nH]1",
    "class.assignment": "no (0)"
  },
  {
    "smiles.str": "COc1cc(N2CCC(N3CCOCC3)CC2)ccc1-c1nc2c(N[C@H]3[C@@H](C(N)=O)[C@@H]4C=C[C@H]3C4)c(Cl)cnc2[nH]1",
    "class.assignment": "yes (1)"
  },
  {
    "smiles.str": "COc1cc(CN2CCOCC2)ccc1-c1nc2c(N[C@H]3[C@@H](C(N)=O)[C@@H]4C=C[C@H]3C4)c(Cl)cnc2[nH]1",
    "class.assignment": "yes (1)"
  },
  {
    "smiles.str": "COc1cc(N2CCC(N3CCN(C)CC3)CC2)ccc1-c1nc2c(N[C@H]3[C@@H](C(N)=O)[C@@H]4C=C[C@H]3C4)c(Cl)cnc2[nH]1",
    "class.assignment": "no (0)"
  },
  {
    "smiles.str": "COc1cc(N2CCOCC2)ccc1-c1nc2c(N[C@H]3[C@@H](C(N)=O)[C@@H]4C=C[C@H]3C4)c(Cl)cnc2[nH]1",
    "class.assignment": "yes (1)"
  }
]
